Tested on: UO-31
Assay remarks: NCI tumour cell line growth inhibition, 48 h
Calls of active or inactive are those of the source. No stated cut-off is given here; in the data, active = GI50 up to about 1.1 µM and inactive = higher.
Hi! Could you answer with just one of these? active, inactive

Tell me the recorded outcome of this test for COc1ccc(C2c3cc4c(cc3OC(N3CCOCC3)C2C)OCO4)c(OC)c1 (stereo unspecified) .
inactive

Tell me the recorded outcome of this test for "COc1ccc(NCC(=O)Nn2c(-c3ccccc3)nc3ccccc3c2=O)cc1" .
inactive

Tell me the recorded outcome of this test for "COc1cc(CNc2ccc(C)cc2)cc(OC)c1OC" .
active

Tell me the recorded outcome of this test for C[N+]1(c2ccccc2)C=C(c2ccccc2)SC1=S (stereo unspecified) .
inactive

Tell me the recorded outcome of this test for "CCCCC1=C(C(=O)N2CCOCC2)C2(OCCO2)C1=O" .
inactive

====

Test system: A549
Assay remarks: NCI tumour cell line growth inhibition, 48 h
Calls of active or inactive are those of the source. Cut-off read from the data, not from the text of the source: active = GI50 up to about 1.1 µM and inactive = higher.
Hi! Could you answer with just one of these? t for active, f for inactive

Recorded results for 3 molecules are shown here.
{"Molecule": "CCc1oc2ccccc2c1C(=O)c1cc(Br)c(O)c(Br)c1", "Group": "f"}
{"Molecule": "CC(C)O/C=C1\\C(=O)C2(SCCS2)[C@H]2CCCC[C@@H]12", "Group": "f"}
{"Molecule": "CCCCCCCCCCCCCCCC(=O)NC1CCc2cc(O)c(O)c(O)c2-c2ccc(SC)c(=O)cc21 (stereo not drawn)", "Group": "f"}

Tell me the recorded outcome of this test for CC(=O)OCC1=C(C)C(OC(=O)C(OC(C)=O)[C@@H](NC(=O)c2ccccc2)c2ccccc2)CCC1(C)C (stereo partly drawn) .
f

====

Test system: HL-60
Assay remarks: NCI tumour cell line growth inhibition, 48 h
Activity calls are given as the source filed them. No stated cut-off is given here; in the data, active = GI50 up to about 1.1 µM and inactive = higher.
Hi! Could you answer with just one of these? active, inactive

Recorded results for 5 molecules are shown here.
{"Molecule": "N=C(CC(=O)Nc1ccccn1)c1ccccc1", "Measured on": "HL-60", "Group": "inactive"}
{"Molecule": "c1ccc(CSC(SCc2ccccc2)c2cccc3ccccc23)cc1", "Measured on": "HL-60", "Group": "inactive"}
{"Molecule": "O=C(NCCCCCCNC(=O)NC1OCC(O)C(O)C1O)NC1OCC(O)C(O)C1O (stereo not drawn)", "Measured on": "HL-60", "Group": "inactive"}
{"Molecule": "Cc1ccc(C(=O)OC[C@H]2CC[C@@H](n3cc(N(C)C4CCCCC4)c(=O)[nH]c3=O)O2)cc1", "Measured on": "HL-60", "Group": "inactive"}
{"Molecule": "CCC12C=CCN3CCC4(c5cc(C(c6ccc(OC)cc6)C6Cc7ccccc7N6)c(OC)cc5N(C)C4C(O)(C(=O)OC)C1O)C32 (stereo not drawn)", "Measured on": "HL-60", "Group": "inactive"}

Tell me the recorded outcome of this test for "CN(C)CCCNc1c2c(nc3ccc(Cl)cc13)CCCC2" .
inactive

Tell me the recorded outcome of this test for "Cc1c(-c2cc(-c3ccccc3)n[nH]c2=O)c2ccccc2n1C" .
inactive

Tell me the recorded outcome of this test for "COc1ccc2c(-c3ccc(O)cc3)c(Oc3ccccc3)c(=O)oc2c1" .
inactive

Tell me the recorded outcome of this test for CCOC(=O)/C(=C\NCC(O)c1ccccc1)c1nc2ccccc2[nH]1 (stereo not drawn) .
inactive

====

System: NCI/ADR-RES
Assay remarks: NCI tumour cell line growth inhibition, 48 h
Activity calls are given as the source filed them. No stated cut-off is given here; in the data, active = GI50 up to about 1.1 µM and inactive = higher.
Hi! Could you answer with just one of these? Y (active), N (inactive)

{"Compound": "Nc1nc(Nc2ccc(Cl)cc2)sc1C(=O)c1cccs1", "Group": "N"}
{"Compound": "CCN(CC)CCN1CCN=c2c3cc(OC)ccc3n3cnc4ccc1c2c43", "Group": "Y"}
{"Compound": "c1ccc2c(c1)nc1n2sc2nc3ccccc3n21", "Group": "N"}
{"Compound": "Cc1cn(Cc2cnnn2CC2OC(n3cc(C)c(=O)[nH]c3=O)CC2O)c(=O)[nH]c1=O (configuration not stated)", "Group": "N"}
{"Compound": "COc1ccc(C2c3cc4c(cc3OC(N3CCOCC3)C2C)OCO4)c(OC)c1 (configuration not stated)", "Group": "N"}
{"Compound": "C=C1C(=O)O[C@@H]2C[C@@H](C)[C@@H]3[C@@H](OC4OC(COC(C)=O)C(O)C(O)C4O)CC(=O)[C@@]3(C)C[C@H]12 (some centres not stated)", "Group": "Y"}

Tell me the recorded outcome of this test for COC(=O)C(Cc1ccccc1)NC(=O)c1ccc(CNC(=S)NCc2cccc(CNC(=S)NCc3ccccc3)c2)cc1 (configuration not stated) .
N

Tell me the recorded outcome of this test for "CCOC(=O)CSc1c(C(=O)OCC)c(=O)n(-c2ccccc2)c(=S)n1-c1ccccc1" .
N

Tell me the recorded outcome of this test for "Cc1cc2occ(S(=O)(=O)NC(=O)Nc3ccc(Cl)cc3)c(=O)c2c(=O)o1" .
N

Tell me the recorded outcome of this test for COC1=NC(NC2OCC(O)C(O)C2O)=C(NC(C)=O)CN1C (configuration not stated) .
N

Tell me the recorded outcome of this test for O=c1[nH]c(=O)n(C2CC(O)C(CO)O2)cc1OCc1ccccc1 (configuration not stated) .
N

Tell me the recorded outcome of this test for "CCOC(=O)c1cc2c(=Cc3ccc(N(C)C)cc3)c3ccccc3n2[n+]1C" .
N

====

Tested on: 786-0
Assay remarks: NCI tumour cell line growth inhibition, 48 h
Active and inactive are the calls of the source. No stated cut-off is given here; in the data, active = GI50 up to about 1.1 µM and inactive = higher.
Hi! Could you answer with just one of these? True for active, False for inactive

Recorded results for 3 compounds are shown here.
{"Compound": "CC1CCC/C1=C(/I)C(=O)c1ccccc1 (centres undefined)", "Measured on": "786-0", "Group": "False"}
{"Compound": "CNC(=O)C1(N)c2ccccc2C=Cc2ccccc21", "Measured on": "786-0", "Group": "False"}
{"Compound": "Cc1cc(C)nc(NS(=O)(=O)c2ccc(NC(=O)c3ccc4nc5ccccc5c(Nc5ccc(S(N)(=O)=O)cc5)c4c3)cc2)n1", "Measured on": "786-0", "Group": "False"}

Tell me the recorded outcome of this test for CC1(OCc2ccccc2)C(=O)N2C1NCC2(C)C (centres undefined) .
False

Tell me the recorded outcome of this test for CC(C)C12CCC3(CCC4C(C)(C(=O)O)CCCC4(C)C3C1)C(CN)C2 (centres undefined) .
False

Tell me the recorded outcome of this test for "c1ccc2c(c1)nc1n2sc2nc3ccccc3n21" .
False

Tell me the recorded outcome of this test for C[N+](C)(C)C1CC([N+](C)(C)C)C2c3ccccc3C21 (centres undefined) .
False

Tell me the recorded outcome of this test for "COc1ccc2c(Cl)cc(NC(=S)Nc3ccccc3)nc2c1" .
False

====

Listed here: items and their measured GI50.
System: OVCAR-5
Assay remarks: NCI tumour cell line growth inhibition, 48 h
Active and inactive are the calls of the source. Cut-off read from the data, not from the text of the source: active = GI50 up to about 1.1 µM and inactive = higher.

// below: answered compounds
{"Compound": "C=C(C)CCC1CCCCC(CN(C)C)C1=O (stereo not given)", "GI50": "> 100 µM (inactive)"}
{"Compound": "COC(CNC(=O)CNC(=O)c1ccc(C(F)(F)F)cc1)OC", "GI50": "> 100 µM (inactive)"}
{"Compound": "CC1(C)CC(=O)c2c(nc3c4c([nH]c(-c5ccc(Br)cc5)c24)CC(C)(C)C3)C1", "GI50": "84.9 µM (inactive)"}
{"Compound": "CCN(CC)CCCC(C)Nc1cc(-c2ccccc2)nc2cc(OC)ccc12 (stereo not given)", "GI50": "2.48 µM (inactive)"}

Measured GI50, O=C(CC1(O)C(=O)Nc2c(Cl)ccc(Cl)c21)c1ccc(F)cc1 (stereo not given) : > 100 µM (inactive)

Measured GI50, "C/C(=N/O)c1ccc2c(c1)/C(=N/O)c1cc(/C(C)=N/O)ccc1-2" : 17.4 µM (inactive)

Measured GI50, "CC(NC(=O)c1ccccc1)(C(=O)O)C(=O)O" : > 100 µM (inactive)

====

Test system: K562
Assay remarks: NCI tumour cell line growth inhibition, 48 h
Activity calls are given as the source filed them. No stated cut-off is given here; in the data, active = GI50 up to about 1.1 µM and inactive = higher.
Hi! Could you answer with just one of these? active, inactive

Recorded results for 10 compounds are shown here.
{"Compound": "C=C(CN1CC2C[C@](C(=O)OC)(c3cc4ccccc4[nH]3)C1C(OC)C2OC)S(=O)(=O)c1ccccc1 (stereo partly drawn)", "Group": "inactive"}
{"Compound": "CCC/C(Cl)=N\\OC(=O)Nc1ccc(F)c([N+](=O)[O-])c1", "Group": "inactive"}
{"Compound": "Cn1c2ccccc2c2c3c(c4c5ccccc5n(C)c4c21)C(=O)NC3=O", "Group": "inactive"}
{"Compound": "CN(C)CCS/C(=N\\c1ccccc1)n1cccc1", "Group": "inactive"}
{"Compound": "O=C1CS(=O)(=O)C(c2cccc(Oc3ccccc3)c2)N1c1cccc(Cl)c1Cl (stereo not drawn)", "Group": "inactive"}
{"Compound": "CN(C)c1ccc(C2SCC(=O)N2NS(=O)(=O)c2cccc(C(=O)O)c2)cc1 (stereo not drawn)", "Group": "inactive"}
{"Compound": "CN(C)Cc1cc(C(=O)/C=C/c2ccc([N+](=O)[O-])cc2)cc(CN(C)C)c1O", "Group": "inactive"}
{"Compound": "CC(C)(C)C1=C(Br)C(O)(C(C)(C)C)OP1(=O)c1ccccc1 (stereo not drawn)", "Group": "inactive"}
{"Compound": "CC1(C)CCc2c(ccc(C(=O)/C=C/c3ccc(O)cc3)c2O)O1", "Group": "inactive"}
{"Compound": "Cc1cc2occ(S(=O)(=O)NC(=O)Nc3ccc(Cl)cc3)c(=O)c2c(=O)o1", "Group": "inactive"}

Tell me the recorded outcome of this test for "COCCOCCOC1=CC(=O)c2c(O)ccc(O)c2C1=O" .
active

Tell me the recorded outcome of this test for N#CC1(C#N)C2C=CC(C3CCC=C32)C1(C#N)C#N (stereo not drawn) .
inactive

Tell me the recorded outcome of this test for "COc1ccc(/C=C2\N=C(c3ccccc3)N(Nc3nnc(NN4C(=O)/C(=C/c5ccc(OC)cc5)N=C4c4ccccc4)c4ccccc34)C2=O)cc1" .
inactive
